System: BRSK2
Conditions: concentration: 1 μM,replicates: in singlicate; n = 1;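 further: KINOMEscan kinase panel screen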
Threshold check on %Inh: at or above 20% gives y, strictly below gives n.

* CN(C)CCOc1ccc(-c2cc(-c3c[nH]nc3-c3ccccn3)ccn2)cc1 | y
* C[C@@H](Oc1cc(-c2cnn(C3CCNCC3)c2)cnc1N)c1c(Cl)ccc(F)c1Cl | n
* CC(C)Nc1cc(-c2ccc3c(N)n[nH]c3c2)nc(N)n1 | n
* NC(=O)c1cc(-c2ccccc2)cc2c(C3CCNCC3)c[nH]c12 | n
* COc1ccc(C[C@@H](CN)NC(=O)c2cc(Br)c(-c3ccnc4[nH]ccc34)s2)cc1.Cl.Cl | y

Ask: Is reported %Inh greater than or equal to 20% here: "CCN(CC)CCCCNc1ncc2cc(-c3c(Cl)cccc3Cl)c(NC(=O)NC(C)(C)C)nc2n1"
Reply: n

Ask: Is reported %Inh greater than or equal to 20% here: "Cc1ccc(-n2nc(C(C)(C)C)cc2NC(=O)Nc2ccc(OCCN3CCOCC3)c3ccccc23)cc1"
Reply: n

Ask: Is reported %Inh greater than or equal to 20% here: "Cc1n[nH]c2ccc(-c3cc(OC[C@@H](N)Cc4ccccc4)cnc3-c3ccoc3)cc12.O=C(O)C(F)(F)F.O=C(O)C(F)(F)F"
Reply: n

Ask: Is reported %Inh greater than or equal to 20% here: "CNC(=O)c1ccccc1Sc1ccc2c(/C=C/c3ccccn3)n[nH]c2c1"
Reply: y

====

Quick list: %Inh per entry.
Test system: BIKE
Construct: gene BMP2K
Conditions: concentration: 1 μM,replicates: in singlicate; n = 1
I only need the number, in %, no unit after it.

Some entries whose results are on file:
- C=CC(=O)Nc1cc2c(Nc3ccc(F)c(Cl)c3)ncnc2cc1OCCCN1CCOCC1 [GW781483]: 22
- CC(C)N1C(=O)Cc2cc(Nc3ncc(C(F)(F)F)c(NCc4cccc(S(C)(=O)=O)c4)n3)ccc21: 68
- Cc1occc1-c1nc(N)c(OC[C@@H](N)Cc2c[nH]c3ccccc23)cc1-c1cc2c(C)n[nH]c2cn1 [GSK1660450]: 74
- Cl.Cl.NC[C@H](CC1CCCCC1)NC(=O)c1cc(Br)c(-c2ccnc3[nH]ccc23)s1 [GSK1581427]: 100
- O=C(NCCNc1ccnc(NCc2ccc(F)cc2)n1)c1cc2ccccc2s1 [GSK1379944]: 27

Proceed to the following item.
Ask: Reported %Inh, compound Cc1n[nH]c2ccc(-c3cc(OC[C@@H](N)Cc4ccccc4)cnc3-c3ccoc3)cc12.O=C(O)C(F)(F)F.O=C(O)C(F)(F)F [GSK507358] : ____
Reply: 81

====

System: MKK7
Details: concentration: 1 μM,replicates: in singlicate; n = 1
Quick list: %Inh per entry.

Ask: Reported %Inh, compound "Cc1cc(C(=O)Nc2ccc(Oc3ccc4nc(NC(=O)C5CC5)cn4n3)cc2)nn1-c1ccccc1" : ____
Reply: 0%

Ask: Reported %Inh, compound "Cl.Oc1cc(-c2nc(-c3ccccc3)[nH]c2-c2ccncc2)ccc1Cl" : ____
Reply: 10%

Ask: Reported %Inh, compound "Cc1occc1-c1nc(N)c(OC[C@@H](N)Cc2c[nH]c3ccccc23)cc1-c1cc2c(C)n[nH]c2cn1" : ____
Reply: 0%

Ask: Reported %Inh, compound "Nc1nc(Nc2ccccc2)cc(-c2ccc3c(N)n[nH]c3c2)n1" : ____
Reply: 0%

Ask: Reported %Inh, compound "CC(C)N1C(=O)Cc2cc(Nc3ncc(C(F)(F)F)c(NCc4cccc(S(C)(=O)=O)c4)n3)ccc21" : ____
Reply: 2%

Ask: Reported %Inh, compound "Cc1cc2cn[nH]c2cc1-c1cccc2c(N)c(C(N)=O)nnc12" : ____
Reply: 27%

Ask: Reported %Inh, compound "CC(C)Nc1cc(-c2ccc3c(N)n[nH]c3c2)nc(N)n1" : ____
Reply: 0%

Ask: Reported %Inh, compound "CNC(=O)c1ccccc1Sc1ccc2c(/C=C/c3ccccn3)n[nH]c2c1" : ____
Reply: 0%

Ask: Reported %Inh, compound "Cc1ccc2c(-c3ccncc3)c(-c3ccc(F)cc3)nn2c1.Cl" : ____
Reply: 0%

Ask: Reported %Inh, compound "CN(C)CCOc1ccc(-c2cc(-c3c[nH]nc3-c3ccccn3)ccn2)cc1" : ____
Reply: 13%

Ask: Reported %Inh, compound "C[C@@H]1CCN(C(=O)CC#N)C[C@@H]1N(C)c1ncnc2[nH]ccc12" : ____
Reply: 0%

====

System: MAP3K1
Settings: concentration: 1 μM,replicates: in singlicate; n = 1
RECORDED_METRIC: %Inh (%)
I only need the number, in %, no unit after it.

Some entries whose results are on file:
- C[C@H]1Oc2cc(cnc2N)-c2c(nn(C)c2C#N)CN(C)C(=O)c2ccc(F)cc21: 58
- CCN(CC)CCCCNc1ncc2cc(-c3c(Cl)cccc3Cl)c(NC(=O)NC(C)(C)C)nc2n1: 23
- Cl.Cl.NC[C@H](Cc1ccc(C(F)(F)F)cc1)NC(=O)c1cc(Br)c(-c2ccnc3[nH]ccc23)s1: 10

Ask: Reported %Inh, molecule "CCn1c(-c2nonc2N)nc2c(C#CC(C)(C)O)nc(OCCN)cc21.Cl.Cl" : ____
Reply: 11

====

Test system: TRKA
Construct: gene NTRK1
Conditions: concentration: 1 μM,replicates: in singlicate; n = 1
// NB: equality with 20% counts as 0.0; only %Inh strictly below is 1.0

Sample answers from the record:
* O=C(NCCCN1CCOC1=O)c1cnc(NCc2cc(Cl)ccc2Cl)nc1NC1CCCC1 | 1.0
* CN(C)CC(O)COc1ccc(Nc2nccc(-c3cnn4nc(N5CCOCC5)ccc34)n2)cc1 (centres unmarked) [GW767488] | 0.0
* C[C@@H](Oc1cc(-c2cnn(C3CCNCC3)c2)cnc1N)c1c(Cl)ccc(F)c1Cl | 0.0
* Cl.Oc1cc(-c2nc(-c3ccccc3)[nH]c2-c2ccncc2)ccc1Cl [SB-386023] | 1.0
* O=C(NCCNc1ccnc(NCc2ccc(F)cc2)n1)c1cc2ccccc2s1 [GSK1379944] | 1.0
* Cc1ccc2c(-c3ccncc3)c(-c3ccc(F)cc3)nn2c1.Cl [GW461484] | 1.0
* COc1ccc(C[C@@H](CN)NC(=O)c2cc(Br)c(-c3ccnc4[nH]ccc34)s2)cc1.Cl.Cl [GSK1389063] | 0.0

Now, please, on to the next compound.
Ask: Does the reported %Inh of the following compound sit strictly below 20%? Cl.Cl.NC[C@H](Cc1ccc(C(F)(F)F)cc1)NC(=O)c1cc(Br)c(-c2ccnc3[nH]ccc23)s1 [GSK1487252]
Reply: 0.0

====

Tested on: LIMK1
Conditions: concentration: 1 μM,replicates: in singlicate; n = 1
RECORDED_METRIC: %Inh (%)
I only need the number, in %, no unit after it.

Some entries whose results are on file:
- C[C@H]1Oc2cc(cnc2N)-c2c(nn(C)c2C#N)CN(C)C(=O)c2ccc(F)cc21: 0
- NC(=O)c1cc(-c2ccccc2)cc2c(C3CCNCC3)c[nH]c12 [GSK301362]: 11
- Cl.Cl.NC[C@H](Cc1ccc(C(F)(F)F)cc1)NC(=O)c1cc(Br)c(-c2ccnc3[nH]ccc23)s1 [GSK1487252]: 0

Ask: Give LIMK1 %Inh for CCN(CC)CCOc1ccc(Nc2ncc3cc(-c4c(Cl)cccc4Cl)c(=O)n(C)c3n2)cc1 [SB-601273]
Reply: 31

====

Tested on: ACVR2B
Details: concentration: 1 μM,replicates: in singlicate; n = 1
RECORDED_METRIC: %Inh (%)
I only need the number, in %, no unit after it.

Some entries whose results are on file:
* C=CC(=O)Nc1cc2c(Nc3ccc(F)c(Cl)c3)ncnc2cc1OCCCN1CCOCC1 [GW781483] | 0
* CN(C)CC(O)COc1ccc(Nc2nccc(-c3cnn4nc(N5CCOCC5)ccc34)n2)cc1 (centres unmarked) [GW767488] | 0
* CNC(=O)c1ccccc1Sc1ccc2c(/C=C/c3ccccn3)n[nH]c2c1 | 0
* Cc1occc1-c1nc(N)c(OC[C@@H](N)Cc2c[nH]c3ccccc23)cc1-c1cc2c(C)n[nH]c2cn1 [GSK1660450] | 0
* Cc1ccc2c(-c3ccncc3)c(-c3ccc(F)cc3)nn2c1.Cl [GW461484] | 18
* Cl.Oc1cc(-c2nc(-c3ccccc3)[nH]c2-c2ccncc2)ccc1Cl [SB-386023] | 71
* C[C@@H](Oc1cc(-c2cnn(C3CCNCC3)c2)cnc1N)c1c(Cl)ccc(F)c1Cl | 10
* Cc1n[nH]c2ccc(-c3cc(OC[C@@H](N)Cc4ccccc4)cnc3-c3ccoc3)cc12.O=C(O)C(F)(F)F.O=C(O)C(F)(F)F [GSK507358] | 0

Ask: Give ACVR2B %Inh for Cl.Cl.NC[C@H](Cc1ccc(C(F)(F)F)cc1)NC(=O)c1cc(Br)c(-c2ccnc3[nH]ccc23)s1 [GSK1487252]
Reply: 0

Ask: Give ACVR2B %Inh for "C[C@@H]1CCN(C(=O)CC#N)C[C@@H]1N(C)c1ncnc2[nH]ccc12"
Reply: 3

Ask: Give ACVR2B %Inh for "CC(C)N1C(=O)Cc2cc(Nc3ncc(C(F)(F)F)c(NCc4cccc(S(C)(=O)=O)c4)n3)ccc21"
Reply: 51
